system: U2OS; test: Multiplex assay against U2OS; assay type: toxicity, cell-based; conditions: human, 48 h, 1 µM, compound concentration 1 uM, replicate 1
Class class 1: Population Membrane Permeable-Phenotype (%) at least 5%. Class class 0: Population Membrane Permeable-Phenotype (%) below 5%.

compound: N[C@](CC1c2ccccc2Oc2ccccc21)(C(=O)O)[C@H]1C[C@@H]1C(=O)O
class-name: class 0
//
compound: COc1cc2nc(N3CCN(C(=O)COc4c(OC)cccc4C(C)C)CC3)nc(N)c2cc1OC.Cl.Cl
class-name: class 1
//
compound: COc1cc(C(=O)N2CC[C@@H](O)[C@@H](N)C2)cc2nc(-c3cc4ccccc4n3CC3CC3)n(C)c12.Cl
class-name: class 1
//
compound: Cl.Cl.OCCOCCN1CCN(C(c2ccccc2)c2ccc(Cl)cc2)CC1 (configuration not stated) [HYDROXYZINE HYDROCHLORIDE]
class-name: class 0
//
compound: O=c1nc2[nH]c3ccccc3nc-2c(=O)[nH]1
class-name: class 0
//
compound: Nc1nc(CC(=O)Nc2ccc(CCNC[C@H](O)c3ccccc3)cc2)cs1
class-name: class 0
//
compound: CCc1nn2c(C)cc(C)nc2c1Cc1ccc(-c2nnc(C3CCNCC3)o2)cc1
class-name: class 1
//
compound: COc1cc(Nc2ncc3c(n2)-c2ccc(Cl)cc2C(c2c(F)cccc2OC)=NC3)ccc1C(=O)O
class-name: class 1
//
compound: Cc1cc(-c2ccc3c(c2)CC[C@H]3N2CC3(CCN(C(=O)Cc4cn5cc(C)sc5n4)CC3)C2)ncn1
class-name: class 1
//
compound: Cc1nn(C)c2nc(NNC(=O)Nc3cc(Cl)nc(Cl)c3)cc(C(C)C)c12
class-name: class 0
//
compound: CN1C[C@H](C(=O)N[C@]2(C)O[C@@]3(O)[C@@H]4CCCN4C(=O)[C@H](Cc4ccccc4)N3C2=O)C[C@@H]2c3cccc4[nH]cc(c34)C[C@H]21.CS(=O)(=O)O [DIHYDROERGOTAMINE MESYLATE]
class-name: class 0
//
compound: O=C(O)CCC/C=C\CC1C(O)CC(O)C1/C=C/C(O)COc1cccc(Cl)c1 (configuration not stated)
class-name: class 0
//
compound: CC(C)C[C@H](CO)Nc1nc(S[C@@H](C)c2ccccc2)nc2nc(N)sc12
class-name: class 1
//
compound: OCCCNc1cc(-c2ccnc(Nc3cccc(Cl)c3)n2)ccn1
class-name: class 1
//
compound: COCCCN1CCC(NC(=O)c2cc(Cl)c(N)c3c2OCC3)CC1 [PRUCALOPRIDE]
class-name: class 0
//
compound: CSc1nc(NC2CCCC2)c([N+](=O)[O-])c(NC2CCCC2)n1
class-name: class 0
//
compound: COc1ccc2c(c1OCc1ccccc1)C[C@@H](C(=O)O)N(C(=O)C(c1ccccc1)c1ccccc1)C2
class-name: class 0
//
compound: CCCCCCNC(=O)Nc1ccc(S(=O)(=O)Nc2ccc(CCNC[C@H](O)COc3ccc(O)cc3)cc2)cc1
class-name: class 1
//
compound: Cn1cc(C(=O)OCC2CCN(CCNS(C)(=O)=O)CC2)c2ccccc21
class-name: class 1
//
compound: Cc1cc(O)c(-c2ccc([C@@H](C)CN(C)C)cc2)c2c1[nH]c(=O)c1sccc12
class-name: class 1
//
compound: O=C(NCCNCC(O)COc1ccc(O)cc1)N1CCOCC1.O=C(NCCNCC(O)COc1ccc(O)cc1)N1CCOCC1.O=C(O)/C=C/C(=O)O (configuration not stated) [XAMOTEROL FUMARATE]
class-name: class 0
//
compound: COc1c(Nc2ccc(S(C)(=O)=O)nc2C)ncnc1OC1CCN(C(=O)OC(C)C)CC1
class-name: class 1
//
compound: Cc1c(Cc2ccc3ccccc3n2)c2cc(F)ccc2n1CC(=O)O
class-name: class 0
//
compound: CN1CCN(c2ccc(Nc3c4ccccc4nc4ccccc34)cc2)CC1.Cl.Cl.O
class-name: class 1
//
compound: O=C(Nc1cc(-c2ccccc2)nn1-c1ccccc1F)c1ccc([N+](=O)[O-])cc1
class-name: class 1
//
compound: CCCCC[C@H](O)/C=C/[C@H]1[C@H](O)CC(=O)[C@@H]1CCCCCCC(=O)O
class-name: class 0
